Test system: Lactobacillus plantarum HAC03
Assay: in vitro Simulated Stomach Duodenum Passage (SSDP) probiotic survivability, lyophilized HAC03
Type: cell-based
Conditions: Table 3; carbohydrate mixed with HAC03 lyophilizate
Class Criterion met: Artificial Gastric Juice Survivability (%) at least 30%. Class Criterion not met: Artificial Gastric Juice Survivability (%) below 30%.

The following compounds have reported results that may help.
>>> df
                      smiles_code                    measured_on           category
0  O=C[C@@H](O)[C@H](O)[C@H](O)CO  Lactobacillus plantarum HAC03  Criterion not met
1  O=C[C@H](O)[C@@H](O)[C@H](O)CO  Lactobacillus plantarum HAC03  Criterion not met

Reported Artificial Gastric Juice Survivability (%) reaches at least 30% for `OC[C@H]1O[C@H](O[C@H]2O[C@H](CO)[C@@H](O)[C@H](O)[C@H]2O)[C@H](O)[C@@H](O)[C@@H]1O` ?
Criterion met

Reported Artificial Gastric Juice Survivability (%) reaches at least 30% for `O=C(CO)[C@@H](O)[C@H](O)[C@H](O)CO` ?
Criterion met

Reported Artificial Gastric Juice Survivability (%) reaches at least 30% for `OC[C@@H](O)[C@@H](O)[C@H](O)[C@H](O)CO` ?
Criterion not met
